tested on: Escherichia coli TOP10; assay: shrunken log2 fold change of peptide-encoding DNA abundance (4.5 h post-induction vs induction); higher = less antimicrobial activity (less host growth inhibition); conditions: time post-induction: 4.5 h; library: site-saturation at positions 5, 18, 19, 20
Rule: shrunken log2 fold change under 0.03 gives 0.0, otherwise 1.0.

Solved cases below.
{"columns": ["Residues", "Discrete label"],
 "data": [
  ["RRIRNRPPRLPRPRPRPNIHPRP", 0.0],
  ["RRIRTRPPRLPRPRPRPRIFPRP", 0.0],
  ["RRIRERPPRLPRPRPRPIRWPRP", 0.0]
]}

Task: Identify whether the reported shrunken log2 fold change of the following sequence is 0.03 or greater: RRIRQRPPRLPRPRPRPKSCPRP
Output: 0.0

Task: Same thing, different sequence: RRIRNRPPRLPRPRPRPKWDPRP
Output: 1.0

Task: Same thing, different sequence: RRIRGRPPRLPRPRPRPNKNPRP
Output: 1.0

Task: Same thing, different sequence: RRIRMRPPRLPRPRPRPFMDPRP
Output: 0.0

Task: Same thing, different sequence: RRIRERPPRLPRPRPRPWEVPRP
Output: 0.0

Task: Same thing, different sequence: RRIRARPPRLPRPRPRPNAQPRP
Output: 1.0

Task: Same thing, different sequence: RRIRDRPPRLPRPRPRPVEMPRP
Output: 0.0

Task: Same thing, different sequence: RRIRTRPPRLPRPRPRPIHPPRP
Output: 0.0

Task: Same thing, different sequence: RRIRCRPPRLPRPRPRPPWEPRP
Output: 0.0

Task: Same thing, different sequence: RRIRRRPPRLPRPRPRPPEWPRP
Output: 1.0

Task: Same thing, different sequence: RRIRHRPPRLPRPRPRPSSPPRP
Output: 0.0

Task: Same thing, different sequence: RRIRTRPPRLPRPRPRPFMEPRP
Output: 0.0

Task: Same thing, different sequence: RRIRWRPPRLPRPRPRPWYAPRP
Output: 0.0

Task: Same thing, different sequence: RRIRSRPPRLPRPRPRPVDWPRP
Output: 1.0

Task: Same thing, different sequence: RRIRGRPPRLPRPRPRPQCEPRP
Output: 1.0

Task: Same thing, different sequence: RRIRERPPRLPRPRPRPQSEPRP
Output: 0.0

Task: Same thing, different sequence: RRIRYRPPRLPRPRPRPWTHPRP
Output: 0.0

Task: Same thing, different sequence: RRIRHRPPRLPRPRPRPYGAPRP
Output: 0.0

Task: Same thing, different sequence: RRIRERPPRLPRPRPRPWVRPRP
Output: 0.0

----------
system: Escherichia coli TOP10; assay: shrunken log2 fold change of peptide-encoding DNA abundance (4.5 h post-induction vs induction); higher = less antimicrobial activity (less host growth inhibition); details: time post-induction: 4.5 h; library: site-saturation at positions 5, 18, 19, 20
Definition: the class of an entry is the range in Low: < -0.1; Medium: ≥ -0.1 and < 0.09; High: ≥ 0.09 that contains its shrunken log2 fold change.

{"columns": ["Residues", "Discrete label"],
 "data": [
  ["RRIRARPPRLPRPRPRPYRDPRP", "Low"]
]}

Task: Place this sequence in its band: RRIRSRPPRLPRPRPRPQWQPRP
Output: Medium

Task: Same thing, different sequence: RRIRSRPPRLPRPRPRPGDYPRP
Output: Medium

Task: Same thing, different sequence: RRIRLRPPRLPRPRPRPAIIPRP
Output: Low

----------
test system: Escherichia coli TOP10; assay: shrunken log2 fold change of peptide-encoding DNA abundance (4.5 h post-induction vs induction); higher = less antimicrobial activity (less host growth inhibition); settings: time post-induction: 4.5 h; library: site-saturation at positions 5, 18, 19, 20
Reported metric: shrunken log2 fold change
// response body must contain only the number

The cases that follow already have their shrunken log2 fold change on record.
{"columns": ["Residues", "Quantitative readout"],
 "data": [
  ["RRIRPRPPRLPRPRPRPWICPRP", -0.182],
  ["RRIRMRPPRLPRPRPRPWCGPRP", 0.134],
  ["RRIRSRPPRLPRPRPRPKSQPRP", 0.164],
  ["RRIRGRPPRLPRPRPRPGACPRP", 0.911]
]}

We now examine a further sequence.
Task: Give the measured shrunken log2 fold change of RRIRVRPPRLPRPRPRPGNMPRP .
Output: 0.151

----------
The entries below are paired with their reported shrunken log2 fold change.
tested on: Escherichia coli TOP10; assay: shrunken log2 fold change of peptide-encoding DNA abundance (4.5 h post-induction vs induction); higher = less antimicrobial activity (less host growth inhibition); settings: time post-induction: 4.5 h; library: site-saturation at positions 5, 18, 19, 20

The cases that follow already have their shrunken log2 fold change on record.
{"columns": ["Residues", "shrunken log2 fold change"],
 "data": [
  ["RRIRWRPPRLPRPRPRPQMPPRP", 0.135],
  ["RRIRRRPPRLPRPRPRPLNEPRP", 0.162],
  ["RRIRSRPPRLPRPRPRPDAVPRP", 0.32],
  ["RRIRLRPPRLPRPRPRPHCWPRP", 0.109]
]}

Task: Give the measured shrunken log2 fold change of RRIRIRPPRLPRPRPRPWMHPRP .
Output: 0.0105

Task: Same thing, different sequence: RRIRIRPPRLPRPRPRPARGPRP
Output: 0.624

----------
The entries below are paired with their reported shrunken log2 fold change.
test system: Escherichia coli TOP10; assay: shrunken log2 fold change of peptide-encoding DNA abundance (4.5 h post-induction vs induction); higher = less antimicrobial activity (less host growth inhibition); settings: time post-induction: 4.5 h; library: site-saturation at positions 5, 18, 19, 20

The cases that follow already have their shrunken log2 fold change on record.
{"columns": ["Residues", "shrunken log2 fold change"],
 "data": [
  ["RRIRRRPPRLPRPRPRPTQIPRP", -0.0829],
  ["RRIRWRPPRLPRPRPRPNDPPRP", -0.137],
  ["RRIRPRPPRLPRPRPRPPVHPRP", -0.0329],
  ["RRIRTRPPRLPRPRPRPEEIPRP", 0.0464],
  ["RRIRSRPPRLPRPRPRPALPPRP", 0.26]
]}

Task: Give the measured shrunken log2 fold change of RRIRRRPPRLPRPRPRPWLNPRP .
Output: -0.0295

Task: Same thing, different sequence: RRIRERPPRLPRPRPRPDPCPRP
Output: -0.119

Task: Same thing, different sequence: RRIRKRPPRLPRPRPRPATGPRP
Output: 0.145

Task: Same thing, different sequence: RRIRYRPPRLPRPRPRPGIYPRP
Output: -0.288

Task: Same thing, different sequence: RRIRDRPPRLPRPRPRPDCPPRP
Output: -0.0117

Task: Same thing, different sequence: RRIRLRPPRLPRPRPRPQMWPRP
Output: 0.0549

Task: Same thing, different sequence: RRIRVRPPRLPRPRPRPQCQPRP
Output: 0.148

Task: Same thing, different sequence: RRIRMRPPRLPRPRPRPWDDPRP
Output: 0.533

Task: Same thing, different sequence: RRIRYRPPRLPRPRPRPTTWPRP
Output: -0.358

Task: Same thing, different sequence: RRIRLRPPRLPRPRPRPYMVPRP
Output: -0.288

----------
tested on: Escherichia coli TOP10; experiment: shrunken log2 fold change of peptide-encoding DNA abundance (4.5 h post-induction vs induction); higher = less antimicrobial activity (less host growth inhibition); details: time post-induction: 4.5 h; library: site-saturation at positions 5, 18, 19, 20;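 note: peptides expressed intracellularly from a pBAD plasmid library in pooled LB shake-flask culture, induced with 0.3% L-arabinose, DNA abundance read by NGS, three biological replicates, DESeq2 with apeglm shrinkage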
Reported metric: shrunken log2 fold change
// response body must contain only the number

The cases that follow already have their shrunken log2 fold change on record.
{"columns": ["Residues", "shrunken log2 fold change"],
 "data": [
  ["RRIRNRPPRLPRPRPRPVNTPRP", -0.0908],
  ["RRIRYRPPRLPRPRPRPEGFPRP", -0.487],
  ["RRIRARPPRLPRPRPRPNDHPRP", -0.0473],
  ["RRIRYRPPRLPRPRPRPYNKPRP", -0.734],
  ["RRIRRRPPRLPRPRPRPWIPPRP", -0.129],
  ["RRIRWRPPRLPRPRPRPPSGPRP", 0.127]
]}

Task: Kindly state the measured shrunken log2 fold change obtained for RRIRDRPPRLPRPRPRPENAPRP with Escherichia coli TOP10.
Output: 0.37

Task: Same thing, different sequence: RRIRSRPPRLPRPRPRPWIVPRP
Output: -0.127

Task: Same thing, different sequence: RRIRMRPPRLPRPRPRPPWKPRP
Output: 0.567

Task: Same thing, different sequence: RRIRIRPPRLPRPRPRPARMPRP
Output: 0.223

Task: Same thing, different sequence: RRIRSRPPRLPRPRPRPSPTPRP
Output: -0.0425

Task: Same thing, different sequence: RRIRPRPPRLPRPRPRPRIFPRP
Output: -0.0669

Task: Same thing, different sequence: RRIRSRPPRLPRPRPRPMHPPRP
Output: -0.0546

Task: Same thing, different sequence: RRIRVRPPRLPRPRPRPSCMPRP
Output: -0.136

Task: Same thing, different sequence: RRIRVRPPRLPRPRPRPAIQPRP
Output: -0.0625

Task: Same thing, different sequence: RRIRFRPPRLPRPRPRPWTPPRP
Output: -0.26

Task: Same thing, different sequence: RRIRYRPPRLPRPRPRPFFQPRP
Output: -0.428

Task: Same thing, different sequence: RRIRKRPPRLPRPRPRPHNRPRP
Output: -0.137

Task: Same thing, different sequence: RRIRVRPPRLPRPRPRPGVIPRP
Output: 0.0193

Task: Same thing, different sequence: RRIRMRPPRLPRPRPRPETGPRP
Output: 0.321

Task: Same thing, different sequence: RRIRLRPPRLPRPRPRPEHAPRP
Output: -0.00513

Task: Same thing, different sequence: RRIRCRPPRLPRPRPRPQCFPRP
Output: -0.187

The measurements presented in this section are drawn from the supplement of paper PMC9112550.
